# target desc: FGFR4 (Homo sapiens, UniProt P22455)
pIC50: −log10 of the molar value.
measurement label: pIC50

Report measured pIC50; entry is CCS(=O)(=O)Cc1cnc(Oc2c(F)cc(F)cc2OCCCCOc2ccc(/C=C/c3cc(OC)cc(OC)c3)cc2)c(-c2cc(C)c3c(=O)[nH]ccn23)c1 [BST-4]
< 5.00

====

# target desc: STAT3 (Homo sapiens)
# Sequence (P40763 whole entry): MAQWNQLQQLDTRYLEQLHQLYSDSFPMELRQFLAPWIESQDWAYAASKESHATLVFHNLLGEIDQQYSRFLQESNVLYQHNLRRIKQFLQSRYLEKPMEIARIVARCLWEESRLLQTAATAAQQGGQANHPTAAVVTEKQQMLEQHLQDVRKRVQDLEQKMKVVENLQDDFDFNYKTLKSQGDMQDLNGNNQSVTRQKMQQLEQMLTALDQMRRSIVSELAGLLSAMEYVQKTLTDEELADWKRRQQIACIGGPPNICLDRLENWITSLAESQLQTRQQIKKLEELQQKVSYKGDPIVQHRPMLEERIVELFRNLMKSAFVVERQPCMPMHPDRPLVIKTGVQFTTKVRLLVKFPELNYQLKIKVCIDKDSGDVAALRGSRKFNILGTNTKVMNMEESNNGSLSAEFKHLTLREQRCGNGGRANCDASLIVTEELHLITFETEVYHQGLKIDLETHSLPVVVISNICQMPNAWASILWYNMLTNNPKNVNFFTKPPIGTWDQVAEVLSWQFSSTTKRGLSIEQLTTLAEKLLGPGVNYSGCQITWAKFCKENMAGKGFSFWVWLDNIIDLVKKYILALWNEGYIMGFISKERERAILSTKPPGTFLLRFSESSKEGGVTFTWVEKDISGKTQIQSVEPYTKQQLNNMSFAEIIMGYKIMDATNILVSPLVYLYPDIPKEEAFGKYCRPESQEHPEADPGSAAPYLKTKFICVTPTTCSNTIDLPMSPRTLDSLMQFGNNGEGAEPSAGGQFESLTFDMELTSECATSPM
# assay name: STAT3 binding inhibition assay
# Parameters: purchased Abcam
I'd be grateful if you could share measured pIC50 for these entries.
Answers are plain numbers, as −log10 of the molar value.

compound	pIC50
CCS(=O)(=O)Cc1cnc(Oc2c(F)cc(F)cc2O/C=C\CC(=O)COc2ccc(/C=C/c3cc(OC)cc(OC)c3)cc2)c(-c2cc(C)c3c(=O)[nH]ccn23)c1	7.57
CCS(=O)(=O)Cc1cnc(Oc2c(F)cc(F)cc2OCC2CCC(COc3ccc(C=Cc4cc(OC)cc(OC)c4)cc3)N2)c(-c2cc(C)c3c(=O)[nH]ccn23)c1 (centres unmarked)	7.75
CCS(=O)(=O)Cc1cnc(Oc2c(F)cc(F)cc2OCCCCOc2ccc(/C=C/c3cc(OC)cc(OC)c3)cc2)c(-c2cc(C)c3c(=O)[nH]ccn23)c1	8.09

Working through the 2 compounds below one at a time, give pIC50 for each.
1. CCS(=O)(=O)Cc1cnc(Oc2c(F)cc(F)cc2OCc2nc(COc3ccc(/C=C/c4cc(OC)cc(OC)c4)cc3)c[nH]2)c(-c2cc(C)c3c(=O)[nH]ccn23)c1
2. CCS(=O)(=O)Cc1cnc(Oc2c(F)cc(F)cc2OC[C@@H]2CCC[C@H](COc3ccc(/C=C/c4cc(OC)cc(OC)c4)cc3)N2)c(-c2cc(C)c3c(=O)[nH]ccn23)c1

1. 7.68
2. 7.95

====

# Test system: 769-P cells
# assay name: MTT cytotoxicity assay
# Type: cell-based
# experimental context: Homo sapiens, cell growth, 48 h treatment, read-out: IC50 (μM) ± SD 769-P
measurement label: IC50 (µM)
Numbers only, in µM.

Give a short answer stating reported IC50 for "CCS(=O)(=O)Cc1cnc(Oc2c(F)cc(F)cc2OCCCCOc2ccc(/C=C/c3cc(OC)cc(OC)c3)cc2)c(-c2cc(C)c3c(=O)[nH]ccn23)c1" .
1.68

====

# target desc: ERBB4 (Homo sapiens)
pIC50: −log10 of the molar value.
measurement label: pIC50

Annotate the compound "CCS(=O)(=O)Cc1cnc(Oc2c(F)cc(F)cc2OCCCCOc2ccc(/C=C/c3cc(OC)cc(OC)c3)cc2)c(-c2cc(C)c3c(=O)[nH]ccn23)c1" with its measured pIC50.
< 5.00

====

# target desc: BTK (Homo sapiens, UniProt Q06187)
measurement label: IC50

Answer with the recorded IC50 for the compound listed here: CCS(=O)(=O)Cc1cnc(Oc2c(F)cc(F)cc2OCCCCOc2ccc(/C=C/c3cc(OC)cc(OC)c3)cc2)c(-c2cc(C)c3c(=O)[nH]ccn23)c1 [BST-4]
> 10 µM

====

# target desc: EPHA4 (Homo sapiens, UniProt P54764)
pIC50: −log10 of the molar value.
measurement label: pIC50

Return value of pIC50 for input "CCS(=O)(=O)Cc1cnc(Oc2c(F)cc(F)cc2OCCCCOc2ccc(/C=C/c3cc(OC)cc(OC)c3)cc2)c(-c2cc(C)c3c(=O)[nH]ccn23)c1" , no commentary.
< 5.00

====

# target desc: NTRK3 (Homo sapiens)
# Sequence (Q16288 32-839): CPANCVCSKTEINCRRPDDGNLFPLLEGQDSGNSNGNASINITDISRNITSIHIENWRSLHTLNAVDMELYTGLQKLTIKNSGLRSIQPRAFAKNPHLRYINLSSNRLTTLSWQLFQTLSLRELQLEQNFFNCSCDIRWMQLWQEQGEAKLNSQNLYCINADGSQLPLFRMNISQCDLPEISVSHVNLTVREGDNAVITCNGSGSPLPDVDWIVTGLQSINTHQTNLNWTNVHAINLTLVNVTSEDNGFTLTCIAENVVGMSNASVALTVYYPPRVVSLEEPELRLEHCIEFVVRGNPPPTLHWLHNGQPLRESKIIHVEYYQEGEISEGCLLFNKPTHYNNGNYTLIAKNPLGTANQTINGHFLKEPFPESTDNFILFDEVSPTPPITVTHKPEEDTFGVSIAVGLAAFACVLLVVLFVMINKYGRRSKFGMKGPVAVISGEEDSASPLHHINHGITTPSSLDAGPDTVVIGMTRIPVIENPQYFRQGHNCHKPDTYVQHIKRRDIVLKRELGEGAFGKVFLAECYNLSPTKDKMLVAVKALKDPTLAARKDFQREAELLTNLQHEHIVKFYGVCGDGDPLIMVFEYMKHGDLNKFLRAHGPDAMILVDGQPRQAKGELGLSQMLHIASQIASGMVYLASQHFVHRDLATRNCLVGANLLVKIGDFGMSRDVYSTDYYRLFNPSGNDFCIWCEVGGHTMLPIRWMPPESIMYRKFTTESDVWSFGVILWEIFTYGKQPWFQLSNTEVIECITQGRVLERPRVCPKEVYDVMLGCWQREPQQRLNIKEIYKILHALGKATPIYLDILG
pIC50: −log10 of the molar value.
measurement label: pIC50

Supply reported pIC50 belonging to this compound: "CCS(=O)(=O)Cc1cnc(Oc2c(F)cc(F)cc2OCCCCOc2ccc(/C=C/c3cc(OC)cc(OC)c3)cc2)c(-c2cc(C)c3c(=O)[nH]ccn23)c1"
< 5.00

====

# target desc: BRD2 (Homo sapiens)
pIC50: −log10 of the molar value.
measurement label: pIC50

Give the measured pIC50 for "CCS(=O)(=O)Cc1cnc(Oc2c(F)cc(F)cc2OCCCCOc2ccc(/C=C/c3cc(OC)cc(OC)c3)cc2)c(-c2cc(C)c3c(=O)[nH]ccn23)c1"
< 5.00

====

# target desc: UniProt P42226
# Sequence (P42226 whole entry): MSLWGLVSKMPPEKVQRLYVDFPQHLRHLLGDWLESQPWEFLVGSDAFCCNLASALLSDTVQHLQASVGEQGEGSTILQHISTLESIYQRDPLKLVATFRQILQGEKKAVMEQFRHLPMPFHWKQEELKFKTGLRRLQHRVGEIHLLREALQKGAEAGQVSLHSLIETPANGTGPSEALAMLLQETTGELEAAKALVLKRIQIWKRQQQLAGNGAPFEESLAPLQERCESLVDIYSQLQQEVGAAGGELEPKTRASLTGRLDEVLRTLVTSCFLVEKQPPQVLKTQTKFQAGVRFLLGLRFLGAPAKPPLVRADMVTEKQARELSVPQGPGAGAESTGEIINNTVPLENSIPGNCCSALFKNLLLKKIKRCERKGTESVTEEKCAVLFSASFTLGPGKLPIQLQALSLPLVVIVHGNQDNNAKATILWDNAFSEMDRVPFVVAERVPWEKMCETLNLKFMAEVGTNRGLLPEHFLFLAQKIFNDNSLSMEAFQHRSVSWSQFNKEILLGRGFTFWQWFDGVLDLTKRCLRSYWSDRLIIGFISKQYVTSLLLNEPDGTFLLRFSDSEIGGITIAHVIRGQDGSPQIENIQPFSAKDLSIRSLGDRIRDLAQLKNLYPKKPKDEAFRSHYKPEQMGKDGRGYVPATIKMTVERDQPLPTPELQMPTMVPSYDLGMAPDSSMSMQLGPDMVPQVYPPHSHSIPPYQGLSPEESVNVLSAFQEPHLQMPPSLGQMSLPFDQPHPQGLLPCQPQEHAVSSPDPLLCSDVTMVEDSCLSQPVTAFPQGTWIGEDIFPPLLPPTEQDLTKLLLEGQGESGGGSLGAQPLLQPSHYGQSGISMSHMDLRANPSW
measurement label: IC50

Look up and report IC50, with UniProt P42226 as system, for "CCS(=O)(=O)Cc1cnc(Oc2c(F)cc(F)cc2OCCCCOc2ccc(/C=C/c3cc(OC)cc(OC)c3)cc2)c(-c2cc(C)c3c(=O)[nH]ccn23)c1"
> 10 µM

====

# target desc: STAT2 (Homo sapiens)
# Sequence (P52630 whole entry): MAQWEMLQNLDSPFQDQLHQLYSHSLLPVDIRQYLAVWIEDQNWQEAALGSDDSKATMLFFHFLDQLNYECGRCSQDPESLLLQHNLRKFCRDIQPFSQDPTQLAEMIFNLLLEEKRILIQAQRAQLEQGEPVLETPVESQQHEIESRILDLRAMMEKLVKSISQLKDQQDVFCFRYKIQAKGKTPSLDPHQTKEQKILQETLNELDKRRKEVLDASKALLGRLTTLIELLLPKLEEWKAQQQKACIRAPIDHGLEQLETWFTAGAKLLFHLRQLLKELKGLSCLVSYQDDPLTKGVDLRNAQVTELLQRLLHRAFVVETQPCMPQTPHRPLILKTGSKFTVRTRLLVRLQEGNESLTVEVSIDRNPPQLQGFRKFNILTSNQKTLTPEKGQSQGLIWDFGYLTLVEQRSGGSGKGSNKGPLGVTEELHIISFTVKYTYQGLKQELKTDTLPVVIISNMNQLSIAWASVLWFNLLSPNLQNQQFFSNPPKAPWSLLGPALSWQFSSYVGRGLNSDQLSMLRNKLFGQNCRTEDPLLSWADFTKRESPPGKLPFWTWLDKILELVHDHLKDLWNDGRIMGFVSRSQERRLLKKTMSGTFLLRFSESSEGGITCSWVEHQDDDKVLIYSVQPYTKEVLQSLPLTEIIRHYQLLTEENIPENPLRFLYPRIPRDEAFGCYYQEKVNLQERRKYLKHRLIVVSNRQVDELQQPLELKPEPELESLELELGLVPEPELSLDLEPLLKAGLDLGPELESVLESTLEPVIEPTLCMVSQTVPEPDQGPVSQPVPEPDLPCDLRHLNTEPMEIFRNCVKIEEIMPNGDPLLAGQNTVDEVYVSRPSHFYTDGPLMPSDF
measurement label: Kd

Look up and report measured Kd for this entry: "CCS(=O)(=O)Cc1cnc(Oc2c(F)cc(F)cc2OCCCCOc2ccc(/C=C/c3cc(OC)cc(OC)c3)cc2)c(-c2cc(C)c3c(=O)[nH]ccn23)c1"
> 10 µM

====

# target desc: SYK (Homo sapiens)
pIC50: −log10 of the molar value.
measurement label: pIC50

Note pIC50 for the molecule shown: "CCS(=O)(=O)Cc1cnc(Oc2c(F)cc(F)cc2OCCCCOc2ccc(/C=C/c3cc(OC)cc(OC)c3)cc2)c(-c2cc(C)c3c(=O)[nH]ccn23)c1"
< 5.00

====

# target desc: BMX (Homo sapiens, UniProt P51813)
# Sequence (P51813 1-675): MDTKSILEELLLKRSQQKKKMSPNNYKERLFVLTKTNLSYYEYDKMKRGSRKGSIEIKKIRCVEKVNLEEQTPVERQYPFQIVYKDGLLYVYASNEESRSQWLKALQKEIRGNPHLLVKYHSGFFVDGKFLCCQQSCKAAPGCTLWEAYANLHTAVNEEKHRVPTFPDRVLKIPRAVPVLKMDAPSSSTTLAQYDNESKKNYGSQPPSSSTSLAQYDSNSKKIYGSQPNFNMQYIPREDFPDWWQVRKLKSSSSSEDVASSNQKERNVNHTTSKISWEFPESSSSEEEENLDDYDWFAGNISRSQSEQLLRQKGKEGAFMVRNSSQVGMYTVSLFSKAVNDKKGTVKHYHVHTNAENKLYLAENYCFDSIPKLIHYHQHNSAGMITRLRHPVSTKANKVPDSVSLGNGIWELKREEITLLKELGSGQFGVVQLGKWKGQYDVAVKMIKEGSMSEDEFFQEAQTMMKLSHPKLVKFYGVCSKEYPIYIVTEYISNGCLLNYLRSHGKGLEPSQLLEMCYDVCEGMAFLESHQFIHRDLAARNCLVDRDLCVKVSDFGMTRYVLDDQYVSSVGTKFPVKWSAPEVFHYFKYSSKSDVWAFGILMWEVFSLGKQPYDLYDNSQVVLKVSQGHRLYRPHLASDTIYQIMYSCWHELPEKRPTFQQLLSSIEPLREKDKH
pIC50: −log10 of the molar value.
measurement label: pIC50

Provide one value: measured pIC50 of "CCS(=O)(=O)Cc1cnc(Oc2c(F)cc(F)cc2OCCCCOc2ccc(/C=C/c3cc(OC)cc(OC)c3)cc2)c(-c2cc(C)c3c(=O)[nH]ccn23)c1"
< 5.00

====

# target desc: BRD3 (Homo sapiens, UniProt Q15059)
# Sequence (Q15059 whole entry): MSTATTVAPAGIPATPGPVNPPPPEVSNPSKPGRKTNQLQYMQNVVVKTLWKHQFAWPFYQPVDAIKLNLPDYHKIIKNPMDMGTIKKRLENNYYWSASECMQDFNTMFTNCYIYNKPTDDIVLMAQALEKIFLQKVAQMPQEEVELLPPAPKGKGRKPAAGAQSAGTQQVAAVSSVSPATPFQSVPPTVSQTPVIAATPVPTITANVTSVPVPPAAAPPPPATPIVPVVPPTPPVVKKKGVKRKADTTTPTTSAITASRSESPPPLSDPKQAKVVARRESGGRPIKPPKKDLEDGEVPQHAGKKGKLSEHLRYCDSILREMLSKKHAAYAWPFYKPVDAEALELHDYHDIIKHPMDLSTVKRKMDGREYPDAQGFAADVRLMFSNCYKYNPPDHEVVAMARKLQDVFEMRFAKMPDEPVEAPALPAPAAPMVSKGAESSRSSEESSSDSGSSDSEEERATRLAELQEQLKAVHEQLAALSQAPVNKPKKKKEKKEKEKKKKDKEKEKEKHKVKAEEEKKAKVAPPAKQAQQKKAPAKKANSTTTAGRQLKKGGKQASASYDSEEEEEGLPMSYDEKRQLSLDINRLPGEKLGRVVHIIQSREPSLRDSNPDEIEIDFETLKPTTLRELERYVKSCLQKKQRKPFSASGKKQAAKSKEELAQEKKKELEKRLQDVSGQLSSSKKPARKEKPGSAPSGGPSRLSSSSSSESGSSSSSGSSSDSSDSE
pKd: −log10 of the molar value.
measurement label: pKd

Determine from records and report pKd for CCS(=O)(=O)Cc1cnc(Oc2c(F)cc(F)cc2OCCCCOc2ccc(/C=C/c3cc(OC)cc(OC)c3)cc2)c(-c2cc(C)c3c(=O)[nH]ccn23)c1 [BST-4]
< 5.00

====

# target desc: FYN (Homo sapiens)
measurement label: IC50

Quickly give me recorded IC50 for "CCS(=O)(=O)Cc1cnc(Oc2c(F)cc(F)cc2OCCCCOc2ccc(/C=C/c3cc(OC)cc(OC)c3)cc2)c(-c2cc(C)c3c(=O)[nH]ccn23)c1"
> 10 µM

====

# target desc: INSRR (Homo sapiens)
pIC50: −log10 of the molar value.
measurement label: pIC50

Provide the reported pIC50 (system: INSRR (Homo sapiens)) for "CCS(=O)(=O)Cc1cnc(Oc2c(F)cc(F)cc2OCCCCOc2ccc(/C=C/c3cc(OC)cc(OC)c3)cc2)c(-c2cc(C)c3c(=O)[nH]ccn23)c1"
< 5.00

====

# target desc: MERTK (Homo sapiens)
# Sequence (Q12866 21-999): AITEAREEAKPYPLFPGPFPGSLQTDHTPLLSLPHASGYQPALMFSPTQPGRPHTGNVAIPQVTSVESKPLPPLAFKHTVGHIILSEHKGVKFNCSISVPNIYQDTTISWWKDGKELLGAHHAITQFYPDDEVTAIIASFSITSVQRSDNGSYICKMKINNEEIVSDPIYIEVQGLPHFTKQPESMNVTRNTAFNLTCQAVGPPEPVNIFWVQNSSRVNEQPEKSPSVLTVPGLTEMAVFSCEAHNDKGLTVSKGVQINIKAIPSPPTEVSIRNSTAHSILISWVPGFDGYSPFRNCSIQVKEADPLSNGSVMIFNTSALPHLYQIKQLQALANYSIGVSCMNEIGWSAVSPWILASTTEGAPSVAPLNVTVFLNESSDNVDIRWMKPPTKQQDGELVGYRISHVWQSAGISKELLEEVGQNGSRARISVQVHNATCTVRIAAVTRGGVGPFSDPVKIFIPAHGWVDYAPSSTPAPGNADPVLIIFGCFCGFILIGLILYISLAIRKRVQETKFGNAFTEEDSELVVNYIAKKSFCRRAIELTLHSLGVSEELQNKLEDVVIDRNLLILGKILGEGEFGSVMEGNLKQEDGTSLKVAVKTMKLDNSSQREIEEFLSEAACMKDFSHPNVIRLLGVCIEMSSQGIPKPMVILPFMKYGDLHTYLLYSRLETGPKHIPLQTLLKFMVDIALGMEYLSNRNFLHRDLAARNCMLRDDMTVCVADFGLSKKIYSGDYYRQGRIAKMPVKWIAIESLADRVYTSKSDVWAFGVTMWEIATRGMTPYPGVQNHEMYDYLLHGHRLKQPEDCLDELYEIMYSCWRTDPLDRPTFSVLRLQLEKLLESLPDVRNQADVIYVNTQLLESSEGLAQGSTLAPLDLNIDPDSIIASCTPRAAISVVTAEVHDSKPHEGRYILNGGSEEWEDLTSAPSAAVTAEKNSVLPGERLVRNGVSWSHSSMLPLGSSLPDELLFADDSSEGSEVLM
pIC50: −log10 of the molar value.
measurement label: pIC50

Query pIC50 for "CCS(=O)(=O)Cc1cnc(Oc2c(F)cc(F)cc2OCCCCOc2ccc(/C=C/c3cc(OC)cc(OC)c3)cc2)c(-c2cc(C)c3c(=O)[nH]ccn23)c1"
< 5.00

====

# target desc: BLK (Homo sapiens)
measurement label: IC50

# lookup: BLK (Homo sapiens) IC50, key = "CCS(=O)(=O)Cc1cnc(Oc2c(F)cc(F)cc2OCCCCOc2ccc(/C=C/c3cc(OC)cc(OC)c3)cc2)c(-c2cc(C)c3c(=O)[nH]ccn23)c1"
> 10 µM

====

Protein target, amino acids: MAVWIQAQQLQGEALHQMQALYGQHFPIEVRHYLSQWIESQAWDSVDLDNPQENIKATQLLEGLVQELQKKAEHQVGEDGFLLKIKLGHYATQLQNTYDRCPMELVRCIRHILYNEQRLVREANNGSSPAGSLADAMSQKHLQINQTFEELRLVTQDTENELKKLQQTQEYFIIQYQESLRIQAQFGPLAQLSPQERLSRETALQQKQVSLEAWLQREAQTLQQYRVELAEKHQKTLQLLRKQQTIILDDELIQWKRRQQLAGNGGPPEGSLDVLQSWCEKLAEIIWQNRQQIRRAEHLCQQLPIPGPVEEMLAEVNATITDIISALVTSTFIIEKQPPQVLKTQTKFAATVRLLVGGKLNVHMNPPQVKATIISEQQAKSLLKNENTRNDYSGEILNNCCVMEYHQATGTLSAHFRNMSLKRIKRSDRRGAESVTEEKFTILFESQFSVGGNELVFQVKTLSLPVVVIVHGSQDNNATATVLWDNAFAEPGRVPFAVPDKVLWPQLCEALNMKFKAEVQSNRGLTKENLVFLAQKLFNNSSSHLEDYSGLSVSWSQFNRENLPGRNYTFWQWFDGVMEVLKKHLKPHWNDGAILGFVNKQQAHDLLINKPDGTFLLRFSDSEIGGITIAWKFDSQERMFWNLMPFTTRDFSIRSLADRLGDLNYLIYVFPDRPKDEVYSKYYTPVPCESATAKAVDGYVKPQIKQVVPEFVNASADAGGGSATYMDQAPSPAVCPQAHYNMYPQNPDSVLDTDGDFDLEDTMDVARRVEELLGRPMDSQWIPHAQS
measurement label: Kd

Entry "CCS(=O)(=O)Cc1cnc(Oc2c(F)cc(F)cc2OCCCCOc2ccc(/C=C/c3cc(OC)cc(OC)c3)cc2)c(-c2cc(C)c3c(=O)[nH]ccn23)c1" needs its Kd filled in; supply it.
> 10 µM
